Values compiled from ChEMBL document CHEMBL1157150.

Test system: Bacillus subtilis
Test: microbe, parasite or virus in culture
Format: functional
Details: ATCC 6633
Description: Antibacterial activity against Bacillus subtilis ATCC 6633
Reported MIC values are given for each entry in this list.
Supply the numeric figure in µg/mL, leaving out any unit text.

Consider the following illustrative entries.
COMPOUND: CC1=NN(/C(C)=N\OC(=O)c2ccccc2Cl)C(c2ccc(OCc3ccc(F)cc3)cc2)C1 (stereo not given)
MIC (µg/mL): 50

COMPOUND: COC1CC(c2ccccc2)=NN1/C(C)=N\OC(=O)c1ccc(F)cc1 (stereo not given)
MIC (µg/mL): 3.12

Which MIC value belongs to C=CC(=O)O/N=C(/C)N1N=C(c2ccc(Cl)cc2Cl)CC1c1ccc(C(F)(F)F)cc1 (stereo not given) ?
3.12

Which MIC value belongs to CC1=NN(/C(C)=N\OC(=O)c2ccc(C(F)(F)F)cc2)C(c2ccccc2OCc2ccc(F)cc2)C1 (stereo not given) ?
50

Which MIC value belongs to C/C(=N/OC(=O)c1ccccc1C)N1N=C(c2ccc(Cl)cc2Cl)CC1c1ccccc1F (stereo not given) ?
50

* * *

Test system: Bacillus subtilis
Assay: microbe, parasite or virus in culture
Assay type: functional
Settings: ATCC 6633
MIC under 10 µg/mL gets YES, anything at or over 10 µg/mL gets NO.

Please determine if C/C(=N/OC(=O)c1ccc(F)cc1)N1N=C(c2ccc(Cl)cc2Cl)CC1c1ccccc1F (configuration not stated) is below 10 µg/mL in terms of MIC.
NO

* * *

Tested on: Bacillus subtilis
Experiment: microbe, parasite or virus in culture
Assay type: functional
Settings: ATCC 6633
QUANTITY: MIC (µg/mL)
Supply the numeric figure in µg/mL, leaving out any unit text.

MOLECULE: C/C(=N/OC(=O)c1ccc(F)cc1)N1N=C(c2ccc(Cl)cc2Cl)CC1c1ccc(C(F)(F)F)cc1 (stereo not given)
MEASURED TARGET: Bacillus subtilis
QUANTITY: MIC
OBSERVED VALUE: 25

Give recorded MIC with Bacillus subtilis for the following molecule: C/C(=N/OC(=O)c1ccccc1F)N1N=C(c2ccc(Cl)cc2Cl)CC1c1ccccc1F (stereo not given)
12.5

Give recorded MIC with Bacillus subtilis for the following molecule: CCCC(=O)O/N=C(/C)N1N=C(C)CC1c1ccccc1OCc1ccc(F)cc1 (stereo not given)
50

Give recorded MIC with Bacillus subtilis for the following molecule: C/C(=N/OC(=O)c1ccccc1[N+](=O)[O-])N1N=C(c2ccc(Cl)cc2Cl)CC1c1ccc(C(F)(F)F)cc1 (stereo not given)
50

* * *

Tested on: Bacillus subtilis
Test: microbe, parasite or virus in culture
Assay type: functional
Conditions: ATCC 6633
MIC under 10 µg/mL gets true (1), anything at or over 10 µg/mL gets false (0).

COMPOUND: CCC(=O)O/N=C(/C)N1N=C(c2ccccc2)CC1OC (stereo unspecified)
MEASURED TARGET: Bacillus subtilis
CATEGORY: false (0)

Please determine if C/C(=N/OC(=O)c1ccccc1C)N1N=C(c2ccc(Cl)cc2Cl)CC1c1ccc(C(F)(F)F)cc1 (stereo unspecified) is below 10 µg/mL in terms of MIC.
false (0)

* * *

System: Bacillus subtilis
Assay: microbe, parasite or virus in culture
Format: functional
Details: ATCC 6633
QUANTITY: MIC (µg/mL)
Supply the numeric figure in µg/mL, leaving out any unit text.

Consider the following illustrative entries.
MOLECULE: C/C(=N/OC(=O)c1ccccc1F)N1N=C(c2ccc(Cl)cc2Cl)CC1c1ccc(C(F)(F)F)cc1 (centres undefined)
MEASURED TARGET: Bacillus subtilis
OBSERVED VALUE: 12.5

MOLECULE: C=CC(=O)O/N=C(/C)N1N=C(c2ccc(Cl)cc2Cl)CC1c1ccccc1F (centres undefined)
MEASURED TARGET: Bacillus subtilis
OBSERVED VALUE: 3.12

MOLECULE: CC1=NN(/C(C)=N\OC(=O)c2ccccc2F)C(c2ccc(OCc3ccc(F)cc3)cc2)C1 (centres undefined)
MEASURED TARGET: Bacillus subtilis
OBSERVED VALUE: 25

MOLECULE: CC1=NN(/C(C)=N\OC(=O)c2cccnc2)C(c2ccc(OCc3ccc(F)cc3)cc2)C1 (centres undefined)
MEASURED TARGET: Bacillus subtilis
OBSERVED VALUE: 6.25

MOLECULE: C/C(=N/OC(=O)c1ccco1)N1N=C(c2ccc(Cl)cc2Cl)CC1c1ccccc1F (centres undefined)
MEASURED TARGET: Bacillus subtilis
OBSERVED VALUE: 3.12

MOLECULE: CCC(=O)O/N=C(/C)N1N=C(c2ccc(Cl)cc2Cl)CC1c1ccccc1F (centres undefined)
MEASURED TARGET: Bacillus subtilis
OBSERVED VALUE: 50

Which MIC value belongs to CCCC(=O)O/N=C(/C)N1N=C(C)CC1c1ccc(OCc2ccc(F)cc2)cc1 (centres undefined) ?
50

Which MIC value belongs to CC1=NN(/C(C)=N\OC(=O)/C=C/c2ccccc2)C(c2ccc(OCc3ccc(F)cc3)cc2)C1 (centres undefined) ?
12.5

Which MIC value belongs to C/C(=N/OC(=O)c1ccc(C(F)(F)F)cc1)N1N=C(c2ccc(Cl)cc2Cl)CC1c1ccc(C(F)(F)F)cc1 (centres undefined) ?
25

Which MIC value belongs to C/C(=N/OC(=O)c1ccccc1[N+](=O)[O-])N1N=C(c2ccc(Cl)cc2Cl)CC1c1ccccc1F (centres undefined) ?
25
